The origin of these recorded values is patent US20180057462A1.

- assayProtocol: LogP by HPLC on reversed phase columns (EEC directive 79/831 Annex V.A8), method [a]
- Format: physicochemical
- conditionParameters: LC-UV, acidic range, 0.1% formic acid in water and acetonitrile as eluent (linear gradient 10% to 95% acetonitrile)
Assignment: determine reported LogP[a] for the given compounds.
Numbers only.

> print(dat)
                                   compound  endpoint  measurement
1  Cc1nc(C)c(-c2cccc(NC(=O)c3cccnc3C(F)F)c2C)s1   LogP[a]         1.98
2  Cc1c(NC(=O)c2cccnc2C(F)F)cccc1OCc1cccc(C(F)(F)F)c1   LogP[a]         3.52
3  Cc1c(NC(=O)c2cccnc2C(F)F)cccc1C1CCCO1 (stereo not shown)   LogP[a]         2.02
4  Cc1c(NC(=O)c2cccnc2C(F)F)cccc1OC(C)COc1cccc(Cl)c1 (stereo not shown)   LogP[a]         3.76
5  Cc1c(NC(=O)c2cccnc2C(F)F)cccc1OC(C)COC(C)(C)C (stereo not shown)   LogP[a]         3.31
6  Cc1c(CCC2CC2(Cl)Cl)cccc1NC(=O)c1c(C(F)F)ccnc1C(F)F (stereo not shown)   LogP[a]         3.92

Here is the next item to consider.
**Query** Looking for the measured LogP[a] of `Cc1c(NC(=O)c2cccnc2C(F)F)cccc1OCc1ccc(Cl)cc1Cl` , can you help?
**Result** 3.99

* * *

- assayProtocol: LogP by HPLC on reversed phase columns (EEC directive 79/831 Annex V.A8), method [a]
- Type: physicochemical
- conditionParameters: LC-UV, acidic range, 0.1% formic acid in water and acetonitrile as eluent (linear gradient 10% to 95% acetonitrile)
endpoint: LogP[a]
Numbers only.

Solved cases below.
> print(dat)
                                   molecule  endpoint  measurement
1  Cc1c(NC(=O)c2cccnc2C(F)F)cccc1OC(C)c1cc(Cl)ccc1Cl (stereo not drawn)   LogP[a]         4.15
2  CCCOCC(C)Oc1cccc(NC(=O)c2cccnc2C(F)F)c1C (stereo not drawn)   LogP[a]         3.04
3  Cc1c(NC(=O)c2cccnc2C(F)F)cccc1-c1csc(C(C)C)n1   LogP[a]         2.94
4  Cc1c(NC(=O)c2cccnc2C(F)F)cccc1OC(C)c1ccccc1 (stereo not drawn)   LogP[a]         3.33
5  Cc1cccc(OCC(C)Oc2cccc(NC(=O)c3cccnc3C(F)F)c2C)c1 (stereo not drawn)   LogP[a]         3.68

Here is the next item to consider.
**Query** Looking for the measured LogP[a] of Cc1c(NC(=O)c2cccnc2C(F)F)cccc1C1CCCCO1 (stereo not drawn) , can you help?
**Result** 2.53

* * *

Assignment: determine reported LogP[a] for the given compounds.
- assayProtocol: LogP by HPLC on reversed phase columns (EEC directive 79/831 Annex V.A8), method [a]
- Type: physicochemical
- conditionParameters: LC-UV, acidic range, 0.1% formic acid in water and acetonitrile as eluent (linear gradient 10% to 95% acetonitrile)
One number for each entry.

Solved cases below.
> print(dat)
                                   compound  measurement
1  Cc1c(NC(=O)c2cccnc2C(F)F)cccc1OCCc1cccc(C(F)(F)F)c1 [Example 60]         3.68
2  Cc1c(NC(=O)c2cccnc2C(F)F)cccc1OCc1ccc(Br)cc1 [Example 19]         3.55
3  Cc1c(NC(=O)c2cccnc2C(F)F)cccc1OC(C)c1ccccc1C(F)(F)F (stereo not drawn) [Example 55]         3.87

Provide reported LogP[a] for each item, in the same order as listed.
1. CCC(C)Oc1cccc(NC(=O)c2cc(C)cnc2C(F)F)c1C(F)(F)F (stereo not drawn) [Example 95]
2. Cc1c(NC(=O)c2cccnc2C(F)F)cccc1OCc1cc(Cl)ccc1Cl [Example 43]
3. Cc1c(NC(=O)c2cccnc2C(F)F)cccc1OC(C)C1(Cl)CC1 (stereo not drawn) [Example 25]

**Result**
3.44
3.85
3.06

* * *

- assayProtocol: LogP by HPLC on reversed phase columns (EEC directive 79/831 Annex V.A8), method [a]
- Assay type: physicochemical
- conditionParameters: LC-UV, acidic range, 0.1% formic acid in water and acetonitrile as eluent (linear gradient 10% to 95% acetonitrile)
Assignment: determine reported LogP[a] for the given compounds.
Numbers only.

> print(dat)
                                   compound  measurement
1  Cc1c(NC(=O)c2cccnc2C(F)F)cccc1OCc1cc(Cl)cc(Cl)c1 [Example 42]         3.96
2  CCOc1cccc(NC(=O)c2cccnc2C(F)F)c1C [Example 118]         2.34
3  CCCC(CC)Oc1cccc(NC(=O)c2cccnc2C(F)F)c1C(F)(F)F (stereo not shown) [Example 93]         3.92

Here is the next item to consider.
**Query** Looking for the measured LogP[a] of Cc1c(NC(=O)c2cccnc2C(F)F)cccc1OCc1ccccc1F [Example 41] , can you help?
**Result** 3.06
